These measurements were taken from the supplement of paper PMC12855868.

B1: library; numbered along this chain (parent)
chain: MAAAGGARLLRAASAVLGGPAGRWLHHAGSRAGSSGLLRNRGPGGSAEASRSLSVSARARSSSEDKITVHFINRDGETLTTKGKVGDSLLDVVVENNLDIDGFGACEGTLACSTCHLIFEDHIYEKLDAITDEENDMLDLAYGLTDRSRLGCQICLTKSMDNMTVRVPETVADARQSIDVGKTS

Variants of: B1
Assay: scaled log2 fold change in cell abundance, elesclomol vs control (0 = silent mean, 1 = nonsense mean) (scaled log2 ratio); higher = higher viability under elesclomol (loss of FDX1 cuproptosis function);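 further: variant abundance is its share of total variant reads in each endpoint sample, from next-generation sequencing of the integrated ORF PCR-amplified out of genomic DNA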
Conditions: with HEK293T FDX1 KO; elesclomol 40 nM; glucose 10 mM; 11 days
Reported scaled log2 fold change maps to class as: bucket A: < -0.2; bucket B: ≥ -0.2 and < 0.4; bucket C: ≥ 0.4

>>> df
    mutationannotation  answerlabel
 0               T164I     bucket A
 1                D91H     bucket A
 2                A47S     bucket B
 3                V92E     bucket C
 4                A59V     bucket B
 5                G76H     bucket A
 6                R11W     bucket B
 7               C152K     bucket C
 8               G143I     bucket A
 9               A111N     bucket B
10                S88M     bucket B
11               G151M     bucket C
12               C155A     bucket A
13               G151S     bucket A
14                G45F     bucket B
15                G42L     bucket C
16               P168M     bucket A
17                N96V     bucket C
18                 G5R     bucket A
19               M160I     bucket C
20                P43Y     bucket C
21               M163D     bucket C
22                 G5N     bucket B
23                W24V     bucket A
24                R31F     bucket B
25               G102C     bucket B
26                S35L     bucket A
27               L127C     bucket B
28                G19Q     bucket B
29                G33R     bucket A
30               E133D     bucket C
31                G42S     bucket A
32               T131I     bucket B
33               L156K     bucket C
34                V93P     bucket B
35               V171D     bucket A
36                E64H     bucket A
37               I100P     bucket A
38               T183L     bucket A
39               C112G     bucket C
40               V167H     bucket C
41               P168C     bucket B
42               A172T     bucket C
43               C115D     bucket C
44                S62V     bucket A
45                A15T     bucket B
46               E125L     bucket B
47                A32N     bucket B
48               Y142F     bucket C
49               E134N     bucket C
50                E48G     bucket C
51                N96W     bucket B
52                E77D     bucket A
53                R60H     bucket B
54               A172R     bucket B
55               Q176D     bucket B
56               I130S     bucket C
57               I123R     bucket B
58                A49L     bucket A
59                G76Y     bucket B
60                L37W     bucket B
61               H116G     bucket A
62               D146A     bucket A
63               L117Q     bucket C
64               L150V     bucket B
65               T114C     bucket B
66               Q153G     bucket A
67               H116V     bucket A
68                L98R     bucket C
69               A174S     bucket A
70               L110W     bucket B
71                A21M     bucket B
72               D179K     bucket A
73               C106D     bucket C
74                 L9N     bucket A
75                A28Y     bucket C
76                G44R     bucket B
77                E77H     bucket B
78                A47Q     bucket C
79               G143Q     bucket B
80               L138N     bucket C
81                G33V     bucket C
82               C115K     bucket C
83                A32H     bucket B
84                S62Q     bucket B
85                D91G     bucket B
86                 A2I     bucket A
87                T68S     bucket C
